Below, each entry is listed with its recorded relative MFI normalized to full-length human CD137.
# Study Target: human/mouse CD137 chimera 1554 (human/mouse chimera) (UniProt Q07011)
# Experimental Details: flow cytometry, transfected 293-F cells
Form field (numeric): enter value without unit.

Binder: 1204/1205 (antibody, V domains shown) VH: EVQLLESGGGLVQPGGSLRLSCAASGFTFSSYYMGWVRQAPGKGLEWVSGIGSYYGYTGYADSVKGRFTISRDNSKNTLYLQMNSLRAEDTAVYYCARAYYDYNYYYAYFDYWGQGTLVTVSS VL: DIQMTQSPSSLSASVGDRVTITCRASQSISSYLNWYQQKPGKAPKLLIYAASSLQSGVPSRFSGSGSGTDFTLTISSLQPEDFATYYCQQSVPHYPFTFGQGTKLEIK
Value Observed: 0.73
--
Binder: 1200/1201 (antibody, V domains shown) VH: EVQLLESGGGLVQPGGSLRLSCAASGFTFSSYAMSWVRQAPGKGLEWVSGISGGGGGTYYADSVKGRFTISRDNSKNTLYLQMNSLRAEDTAVYYCARDVAYFDYWGQGTLVTVSS VL: DIQMTQSPSSLSASVGDRVTITCRASQSISSYLNWYQQKPGKAPKLLIYAASSLQSGVPSRFSGSGSGTDFTLTISSLQPEDFATYYCQQYYIPHTFGQGTKLEIK
Value Observed: 0.84

Query :: Entry 1618/1619 (antibody, V domains shown) VH: EVQLLESGGGLVQPGGSLRLSCAASGFTFSYGSMYWVRQAPGKGLEWVSSISSGSGSTYYADSVKGRFTISRDNSKNTLYLQMNSLRAEDTAVYYCARSSYYGSYYSIDYWGQGTLVTVSS VL: DIQMTQSPSSLSASVGDRVTITCRASQSISSYLNWYQQKPGKAPKLLIYAASSLQSGVPSRFSGSGSGTDFTLTISSLQPEDFATYYCQQYYDNLPTFGQGTKLEIK has what relative MFI normalized to full-length human CD137?
Result :: 1.01
